Target: FLT-3 kinase domain recombinant protein (Homo sapiens, UniProt P36888)
Construct: 50 μL FLT-3 kinase domain recombinant protein diluted with reaction buffer to initiate the reaction
Sequence (P36888 610-943 limits assumed): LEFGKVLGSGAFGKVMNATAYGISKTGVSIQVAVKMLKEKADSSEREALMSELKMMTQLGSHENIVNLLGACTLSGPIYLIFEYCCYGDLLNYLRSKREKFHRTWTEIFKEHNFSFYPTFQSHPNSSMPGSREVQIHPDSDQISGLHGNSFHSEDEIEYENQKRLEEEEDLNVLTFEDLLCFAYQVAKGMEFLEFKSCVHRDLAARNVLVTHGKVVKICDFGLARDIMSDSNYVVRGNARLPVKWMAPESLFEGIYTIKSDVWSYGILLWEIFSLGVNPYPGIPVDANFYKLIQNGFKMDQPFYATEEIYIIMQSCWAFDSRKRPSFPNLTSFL
Test: Inhibition rate on FLT3 kinase (ELISA)
Type: biochemical
Conditions: compound 10 nM; two values per compound; read-out: Inhibition rate (%) against receptor tyrosine kinase FLT-3

Compound | inhibition at 0.01 µM (%)
CCc1ccc2c(c1)c(=O)c(C(=O)Nc1ccc(Oc3ncnc4cc(OCCN(C)C)c(OC)cc34)c(F)c1)c(C)n2C [GDL5000128] | 59.1
COc1cc2ncnc(Oc3ccc(NC(=O)c4cn5c6c(c(N7CCC(O)CC7)c(F)cc6c4=O)CCC5C)cc3F)c2cc1OC (stereo not shown) [TL4830031] | 56.8
CCc1ccc2c(c1)c(=O)c(C(=O)Nc1ccc(Oc3ncnc4cc(OCCCN5CCN(C)CC5)c(OC)cc34)c(F)c1)c(C)n2C [GDL5000138] | 67.7
CCc1ccc2c(c1)c(=O)c(C(=O)Nc1ccc(Oc3ncnc4cc(OC)c(OC)cc34)c(F)c1)c(C)n2C [TL4800191] | 70.7
Cc1c(C(=O)Nc2ccc(Oc3ncnc4[nH]cc(-c5ccccc5)c34)c(F)c2)c(=O)c2cc(C(F)(F)F)ccc2n1C [TL50121] | 58.2
Cc1c(C(=O)Nc2ccc(Oc3ncnc4[nH]cc(-c5ccccc5)c34)c(F)c2)c(=O)c2cc(C(C)C)ccc2n1C [TL50172] | 59.4
CCc1ccc2c(c1)c(=O)c(C(=O)Nc1ccc(Oc3ncnc4[nH]cc(-c5ccccc5)c34)c(F)c1)c(C)n2C [TL4800075] | 48.7
CCc1ccc2c(c1)c(=O)c(C(=O)Nc1ccc(Oc3ncnc4[nH]cc(-c5ccccc5)c34)c(F)c1)c(CC)n2C [TL4830005] | 55.7
COc1cc2ncnc(Oc3ccc(NC(=O)c4cn5c6c(c(N7CCN(C)CC7)c(F)cc6c4=O)OCN5C)cc3F)c2cc1OC [TL4830039] | 44.7
COc1cc2ncnc(Oc3ccc(NC(=O)c4cn5c6c(cc(C)cc6c4=O)CCC5)cc3F)c2cc1OC [TL4830032] | 63.8
